- Test system: CCRIS mutagenicity, Ames/micronucleus/aberration tests
- method-notes: CCRIS mutagenicity studies
- condition-set: Test System: AMES SALMONELLA TYPHIMURIUM; Strain/Indicator: TA1537; Metabolic Activation: RAT, LIVER, S-9, AROCLOR 1254; Method: STANDARD PLATE
Activity calls are given as the source filed them. The rule behind the calls is not given here.
Answer with one of the outcomes given here: active, inactive

Consider the worked cases shown below.
| mol | label-value |
| --- | --- |
| Cc1ccc2c(c1[N+](=O)[O-])C(=O)c1ccccc1C2=O | active |
| C=CC(=O)O | inactive |
| CCCCOCCOCCO | inactive |
| c1cnccn1 | inactive |

Outcome? NC(=O)c1cccc2cccnc12
inactive

Outcome? O=S1(=O)OC(c2cc(Br)c(O)c(Br)c2)(c2cc(Br)c(O)c(Br)c2)c2c(Br)c(Br)c(Br)c(Br)c21
inactive

Outcome? O=C(Cl)OCC1c2ccccc2-c2ccccc21
active

Outcome? O=c1[nH]c2ccccc2o1
inactive

Outcome? CO/N=C(\C(=O)N[C@@H]1C(=O)N2C(C(=O)O)=C(CSC(=O)c3ccco3)CS[C@H]12)c1csc(N)n1
inactive

Outcome? CN(C)CCN(Cc1cccs1)c1ccccn1
inactive

Outcome? CSc1ccc(Cl)cc1
inactive

Outcome? CCN1CCN(C(=O)N[C@@H](C(=O)N[C@@H]2C(=O)N3[C@@H]2SC(C)(C)[C@@H]3C(=O)O)c2ccccc2)C(=O)C1=O
inactive

Outcome? CCCCC/C=C/C=C/C=O
inactive

----------
- System: CCRIS mutagenicity, Ames/micronucleus/aberration tests
- method-notes: CCRIS mutagenicity studies
- condition-set: Test System: AMES SALMONELLA TYPHIMURIUM; Strain/Indicator: TA1535; Metabolic Activation: NONE; Method: STANDARD PLATE
Activity calls are given as the source filed them. How the calls were made is not given here.
Answer with one of the outcomes given here: yes (active), no (inactive)

| compound | label-value |
| --- | --- |
| O=C(Nc1ccc2c(O)c(N=Nc3ccc(N=Nc4ccc(S(=O)(=O)O)cc4)cc3)c(S(=O)(=O)O)cc2c1)c1ccccc1 | no |
| Cc1ccccc1Cl | no |
| CCCCN(N=O)C(N)=O | yes |
| Nc1snc2ccc(Cl)cc12 | no |
| O=C1N=NC(=O)C2C=CC=CC12 (configuration not stated) | no |

Outcome? O=C(O)[C@@H]1CS[C@H](c2ccccc2O)N1C(=O)CCSSCCC(=O)N1[C@@H](c2ccccc2O)SC[C@H]1C(=O)O
no

Outcome? CC(=O)Nc1ccc2c(c1)Cc1ccccc1-2
no

Outcome? Cc1ccc2c(c1Nc1ccccc1)C(=O)c1ccccc1C2=O
no

Outcome? O=PO.O=PO.[Mn+2]
no

Outcome? CN(C)CCC=C1c2ccccc2CCc2ccccc21
no

Outcome? O=c1c(O)c(-c2ccc(O)cc2)oc2cc(O)cc(O)c12
no

Outcome? C=C(C)C(=O)OCC(CC)(COC(=O)C(=C)C)COC(=O)C(=C)C
no

----------
- Tested on: CCRIS mutagenicity, Ames/micronucleus/aberration tests
- method-notes: CCRIS mutagenicity studies
- condition-set: Test System: AMES SALMONELLA TYPHIMURIUM; Strain/Indicator: TA100; Metabolic Activation: NONE
Activity calls are given as the source filed them. How the calls were made is not given here.
Answer with one of the outcomes given here: true (1) = active, false (0) = inactive

| compound | target-desc | label-value |
| --- | --- | --- |
| O=[N+]([O-])c1cccc2c1-c1cccc3c([N+](=O)[O-])ccc-2c13 | CCRIS mutagenicity, Ames/micronucleus/aberration tests | true (1) |
| O=C(N[C@@H](Cc1ccc(Cl)cc1)C(=O)O)OCc1ccccc1 | CCRIS mutagenicity, Ames/micronucleus/aberration tests | true (1) |
| CC(=O)c1ccc2c(c1)C(=O)C1(CC1)O2 | CCRIS mutagenicity, Ames/micronucleus/aberration tests | false (0) |
| N | CCRIS mutagenicity, Ames/micronucleus/aberration tests | false (0) |

Outcome? Oc1cc(Cl)c(Cl)cc1Cl
false (0)

Outcome? CC1(C)C(C=C(Cl)Cl)C1C(=O)OCc1cccc(Oc2ccccc2)c1 (stereo not drawn)
false (0)

Outcome? CCSC(=O)N1CCCCCC1
false (0)

Outcome? CCOP(=S)(OCC(C)C)SCCl (stereo not drawn)
false (0)

Outcome? C#C[C@]1(O)CC[C@H]2[C@@H]3CCc4cc(O)ccc4[C@H]3CC[C@@]21C
false (0)

Outcome? Cc1cc(S(=O)(=O)O)c2c(C)ccc(C(C)C)cc1-2
false (0)

Outcome? O=[N+]([O-])c1ccc2c(ccc3c4ccccc4ccc23)c1
true (1)

Outcome? O=C(CCl)c1ccccc1
false (0)

Outcome? NC(=O)CN1CC(O)CC1=O (stereo not drawn)
false (0)

----------
- Test system: CCRIS mutagenicity, Ames/micronucleus/aberration tests
- method-notes: CCRIS mutagenicity studies
- condition-set: Test System: CHINESE HAMSTER V-79; Strain/Indicator: V-79/6-THIOGUANINE; Metabolic Activation: NONE; Method: STANDARD PLATE
Calls of active or inactive are those of the source. No rule for the calls is given here.
Answer with one of the outcomes given here: active, inactive

Outcome? CCCCN1C2c3ccccc3-c3ccccc3C21 (stereo unspecified)
inactive

Outcome? Cc1c2ccccc2c(C)c2c1ccc1ccccc12
inactive

Outcome? CCCCCC/C=C/C=O
active

Outcome? CC1(C)C(C=C(Cl)Cl)C1C(=O)OCc1cccc(Oc2ccccc2)c1 (stereo unspecified)
inactive

Outcome? Oc1cc(Cl)c(Cl)cc1Cl
inactive

Outcome? ClN1C2c3ccccc3-c3ccccc3C21 (stereo unspecified)
active

Outcome? COc1c(O)cc(Cl)cc1Cl
inactive

Outcome? CC(C)=C[C@@H]1[C@@H](C(=O)OCc2coc(Cc3ccccc3)c2)C1(C)C
inactive

Outcome? CN(N=O)C(=O)N[C@@H](C=O)[C@@H](O)[C@H](O)[C@H](O)CO
active

Outcome? O[C@@H]1[C@H]2O[C@H]2c2c(ccc3c2ccc2ccccc23)[C@H]1O
active

Outcome? OO
active

----------
- System: CCRIS mutagenicity, Ames/micronucleus/aberration tests
- method-notes: CCRIS mutagenicity studies
- condition-set: Test System: AMES SALMONELLA TYPHIMURIUM; Strain/Indicator: TA1535; Metabolic Activation: HAMSTER, LIVER, S-9, AROCLOR 1254 (10%); Method: PREINCUBATION
Active and inactive are the calls of the source. How the calls were made is not given here.
Answer with one of the outcomes given here: active, inactive

Consider the worked cases shown below.
| compound | target-desc | label-value |
| --- | --- | --- |
| O=Cc1ccco1 | CCRIS mutagenicity, Ames/micronucleus/aberration tests | inactive |
| NCCCCCCN | CCRIS mutagenicity, Ames/micronucleus/aberration tests | inactive |
| COc1cc(-c2ccc(N/N=C3/C(=O)c4c(N)cc(S(=O)(=O)O)cc4C=C3S(=O)(=O)O)c(OC)c2)ccc1N/N=C1/C(=O)c2c(N)cc(S(=O)(=O)O)cc2C=C1S(=O)(=O)O | CCRIS mutagenicity, Ames/micronucleus/aberration tests | inactive |
| CC(=O)CC(=O)Nc1ccccc1 | CCRIS mutagenicity, Ames/micronucleus/aberration tests | inactive |
| c1ccc(OP(Oc2ccccc2)Oc2ccccc2)cc1 | CCRIS mutagenicity, Ames/micronucleus/aberration tests | inactive |

Outcome? O=C1OC(=O)c2ccccc21
inactive

Outcome? CC(C)Nc1ccccc1
inactive

Outcome? CC(C)Nc1ccc(Nc2ccccc2)cc1
inactive

Outcome? OCC(CBr)(CBr)CBr
active

Outcome? C=CC(=O)OCC(C)C
inactive

Outcome? Cc1ccc(N)c(C)c1
inactive

Outcome? CCOc1ccc(N=Nc2ccc(-c3ccc(N=Nc4c(O)ccc5cc(S(=O)(=O)O)cc(S(=O)(=O)O)c45)c(C)c3)cc2C)cc1
inactive

Outcome? CC1=NN(c2ccccc2)C(=O)C1
inactive

Outcome? N#CCc1ccccc1[N+](=O)[O-]
active

Outcome? O=C(O)C1=NN(c2ccc(S(=O)(=O)O)cc2)C(=O)C1N=Nc1ccc(S(=O)(=O)O)cc1.[Al] (stereo unspecified)
inactive

Outcome? CCC(Cl)C(Cl)C(Cl)CC(Cl)C(Cl)C(C)Cl (stereo unspecified)
inactive

----------
- System: CCRIS mutagenicity, Ames/micronucleus/aberration tests
- method-notes: CCRIS mutagenicity studies
- condition-set: Test System: AMES SALMONELLA TYPHIMURIUM; Strain/Indicator: TA100; Metabolic Activation: RAT, LIVER, MICROSOMES, PHENOBARBITAL; Method: STANDARD PLATE
Activity calls are given as the source filed them. No rule for the calls is given here.
Answer with one of the outcomes given here: true for active, false for inactive

| mol | label-value |
| --- | --- |
| CC(=O)OC[C@]12C[C@H](OC(=O)CC(C)C)C(C)=C[C@H]1O[C@@H]1[C@H](O)[C@@H](OC(C)=O)[C@@]2(C)[C@]12CO2 | false |

Outcome? ClC(CBr)CBr
false

Outcome? CC(=O)O[C@H]1[C@H]2O[C@H]2C2=CC(=O)[C@]3(C[C@]2(C)[C@H]1C)O[C@]3(C)C=O
true

Outcome? C=C(Br)CCl
false
